assayed_system: T1, EsCas13d, nuclease-dead (Eubacterium siraeum, UniProt B0MS50, R295A;H300A;R849A;H854A)
T1 sequence: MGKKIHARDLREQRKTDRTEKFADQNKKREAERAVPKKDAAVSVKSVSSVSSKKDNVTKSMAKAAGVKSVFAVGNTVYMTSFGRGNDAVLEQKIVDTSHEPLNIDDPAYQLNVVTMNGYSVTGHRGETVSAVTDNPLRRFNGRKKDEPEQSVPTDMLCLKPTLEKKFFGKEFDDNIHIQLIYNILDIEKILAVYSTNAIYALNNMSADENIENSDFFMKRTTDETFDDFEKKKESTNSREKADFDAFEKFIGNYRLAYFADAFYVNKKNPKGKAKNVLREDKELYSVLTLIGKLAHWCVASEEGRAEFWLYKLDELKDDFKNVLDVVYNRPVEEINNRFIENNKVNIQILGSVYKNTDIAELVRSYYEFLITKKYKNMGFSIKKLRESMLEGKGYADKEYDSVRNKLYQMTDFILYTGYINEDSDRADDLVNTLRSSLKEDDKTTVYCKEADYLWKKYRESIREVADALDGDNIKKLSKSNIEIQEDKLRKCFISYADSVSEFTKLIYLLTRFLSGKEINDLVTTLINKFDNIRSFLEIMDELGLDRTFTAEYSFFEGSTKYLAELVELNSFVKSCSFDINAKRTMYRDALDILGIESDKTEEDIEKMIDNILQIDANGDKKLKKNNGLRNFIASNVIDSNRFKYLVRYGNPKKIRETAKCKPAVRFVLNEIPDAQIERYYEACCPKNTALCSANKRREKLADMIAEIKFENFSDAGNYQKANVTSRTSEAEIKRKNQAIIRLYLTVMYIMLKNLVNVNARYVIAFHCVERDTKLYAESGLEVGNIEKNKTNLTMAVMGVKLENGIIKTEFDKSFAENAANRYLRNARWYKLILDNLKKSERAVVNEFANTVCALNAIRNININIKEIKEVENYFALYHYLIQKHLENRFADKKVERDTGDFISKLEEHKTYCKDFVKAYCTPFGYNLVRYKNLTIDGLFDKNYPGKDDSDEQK
experiment_description: crRNA (strand 1, pre-loaded); Mg2+; 40 mM Tris-HCl pH 7.5, 150 mM NaCl, 6 mM MgCl2, 1 mM DTT, 0.1% Tween-20, 0.2 mg/ml BSA; 25 C; 10 min per concentration, then washed
test_settings: tags: His6-TwinStrep-SUMO cleaved; N-terminal SNAP kept (SNAP-Surface 488); label: 3' end held by stalled T7 RNA polymerase
pKd: −log10 of the molar value.
readout: pKd

binder="target 3 U8A,A11C (mixed) RNA 1: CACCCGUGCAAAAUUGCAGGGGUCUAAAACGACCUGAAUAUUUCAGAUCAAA RNA 2: GGGAAUGGAUCCACAUCUACGAAUUCGUUUUUGAUCUGAACUAAUCAGGUCUGCAGAUCGGAAGAGCACACGU" readout=pKd value_reported=7.38
binder="target 1 G5U,G15C (mixed) RNA 1: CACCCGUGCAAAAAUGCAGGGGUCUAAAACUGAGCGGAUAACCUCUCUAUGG RNA 2: GGGAAUGGAUCCACAUCUACGAAUUCGUACCAUAGACAGGUUAUCCUCUCACCGAGAUCGGAAGAGCACACGU" readout=pKd value_reported=7.34
binder="target 1 insG 3' of 4 (mixed) RNA 1: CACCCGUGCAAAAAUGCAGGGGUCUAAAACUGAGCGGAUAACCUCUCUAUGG RNA 2: GGGAAUGGAUCCACAUCUACGAAUUCGUACCAUAGAGAGGUUAUCCGCGUCACCGAGAUCGGAAGAGCACACGU" readout=pKd value_reported=8.18
binder="target 1 MT 5'PFS UGG 3'PFS UUA (mixed) RNA 1: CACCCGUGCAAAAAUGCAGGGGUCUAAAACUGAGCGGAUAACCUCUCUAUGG RNA 2: GGGAAUGGAUCCACAUCUACGAAUUCUGGCCAUAGAGAGGUUAUCCGCUCAUUAAGAUCGGAAGAGCACACGU" readout=pKd value_reported=7.31
binder="target 1 insC 3' of 18,insA 3' of 12 (mixed) RNA 1: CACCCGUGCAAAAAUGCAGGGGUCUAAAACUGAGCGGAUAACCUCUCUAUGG RNA 2: GGGAAUGGAUCCACAUCUACGAAUUCGUACCAUACGAGAGGAUUAUCCGCUCACCGAGAUCGGAAGAGCACACGU" readout=pKd value_reported=7.10
binder="target 1 insU 3' of 21,insG 3' of 3 (mixed) RNA 1: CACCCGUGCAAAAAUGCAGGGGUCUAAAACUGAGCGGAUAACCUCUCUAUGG RNA 2: GGGAAUGGAUCCACAUCUACGAAUUCGUACCUAUAGAGAGGUUAUCCGCUGCACCGAGAUCGGAAGAGCACACGU" readout=pKd value_reported=7.77
binder="target 1 insC 3' of 10,insA 3' of 7 (mixed) RNA 1: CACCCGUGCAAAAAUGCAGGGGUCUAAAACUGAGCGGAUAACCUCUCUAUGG RNA 2: GGGAAUGGAUCCACAUCUACGAAUUCGUACCAUAGAGAGGUUCAUCACGCUCACCGAGAUCGGAAGAGCACACGU" readout=pKd value_reported=7.95
binder="target 1 C2G,U19C (mixed) RNA 1: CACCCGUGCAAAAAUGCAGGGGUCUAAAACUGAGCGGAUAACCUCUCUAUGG RNA 2: GGGAAUGGAUCCACAUCUACGAAUUCGUACCACAGAGAGGUUAUCCGCUGACCGAGAUCGGAAGAGCACACGU" readout=pKd value_reported=7.73
